# ASSAY SYSTEM: UniProtKB Q96RI1
# Sequence (Q96RI1 whole entry, the tested form may be a part): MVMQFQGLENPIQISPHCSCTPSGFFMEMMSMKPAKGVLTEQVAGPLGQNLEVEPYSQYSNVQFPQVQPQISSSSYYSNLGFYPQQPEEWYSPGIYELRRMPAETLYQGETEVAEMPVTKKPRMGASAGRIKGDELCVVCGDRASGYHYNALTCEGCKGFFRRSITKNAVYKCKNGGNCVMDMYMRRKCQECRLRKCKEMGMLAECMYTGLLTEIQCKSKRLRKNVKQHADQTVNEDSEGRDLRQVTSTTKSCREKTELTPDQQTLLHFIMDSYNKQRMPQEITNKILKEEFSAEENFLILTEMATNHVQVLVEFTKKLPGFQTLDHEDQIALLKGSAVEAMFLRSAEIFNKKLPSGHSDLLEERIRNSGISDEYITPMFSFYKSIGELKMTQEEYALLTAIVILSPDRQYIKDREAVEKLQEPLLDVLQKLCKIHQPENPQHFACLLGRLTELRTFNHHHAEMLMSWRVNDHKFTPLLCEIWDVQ
# PROCEDURE SUMMARY: Agonist activity at C-terminal Gal4-tagged human FXR (187 to 472 residues) expressed in HEK-293 cells co-expressing pFRluc by mammalian one hybrid assay relative to GW4064
# Format: cell-based
# ASSAY SETUP: HEK293
# Efficacy values compiled below
Please answer in the form of a number followed by its unit of measurement.

Examples with answers:
Request the reported Efficacy associated with `Cn1nc(C(=O)O)c2ccc([C@H]3C[C@](O)(c4ccc(OCc5c(-c6c(Cl)cccc6Cl)noc5C5CC5)cc4Cl)C3)cc21` 82%

Also need `CC(C)n1nc(C(=O)O)cc1[C@@H]1C[C@H]1c1ccc(OCc2c(-c3c(Cl)cccc3Cl)noc2C2CC2)cc1Cl` , thanks. 79%

---
Quick check: Efficacy of CC(C)n1nc(C(=O)O)cc1C1CC1c1ccc(OCc2c(-c3c(Cl)cccc3Cl)noc2C2CC2)cc1Cl (racemic) ? 81%
